# measured.on: Tyrosine-protein kinase Lck (Homo sapiens)
# run.parameters: at 1 µM
Ranges used to classify residual activity: low value (below 80%), medium value (80% to below 90%), high value (90% or more)

Solved entries (count: 4):
Nc1n[nH]c2nnc(-c3c(-c4ccccc4)nn4ccccc34)cc12 : high value
N#CCCc1ccc2c(c1)-c1[nH]c3ccc([N+](=O)[O-])cc3c1CC(=O)N2 : low value
Cc1cncc2cccc(S(=O)(=O)N3CCCN(C(=O)CN)C[C@H]3C)c12 : medium value
CCC(=O)Nc1ccc2ncnc(Nc3cccc(Br)c3)c2c1 : low value

Exam item: Pick a category. Item: Cn1cnc2cc3c(Nc4cccc(Br)c4)ncnc3cc21
Marked response: low value

Exam item: Pick a category. Item: COc1ccc(OC)c2c(=S)c3ccccc3[nH]c12
Marked response: high value

Exam item: Pick a category. Item: Nc1ccc2ncnc(NCCc3ccc(Oc4ccccc4)cc3)c2c1
Marked response: medium value

---

# measured.on: Receptor tyrosine-protein kinase erbB-4 (Homo sapiens)
# run.parameters: at 1 µM
Listed next: entries and their corresponding residual activity.
Form entry: value (%) — number only.

Exam item: Any idea what residual activity came out for CO[C@H]1[C@@H](OC)C[C@H](C)[C@@H](OC)C2=CC(=O)C=C(NC(=O)/C(C)=C/C=C/[C@H](OC)[C@@H](OC(N)=O)/C(C)=C/[C@@H]1C)C2=O on Receptor tyrosine-protein kinase erbB-4 (Homo sapiens)?
Marked response: 92

---

# measured.on: Serine/threonine-protein kinase BRSK1 (Homo sapiens) (UniProt Q8TDC3)
# Sequence (whole entry): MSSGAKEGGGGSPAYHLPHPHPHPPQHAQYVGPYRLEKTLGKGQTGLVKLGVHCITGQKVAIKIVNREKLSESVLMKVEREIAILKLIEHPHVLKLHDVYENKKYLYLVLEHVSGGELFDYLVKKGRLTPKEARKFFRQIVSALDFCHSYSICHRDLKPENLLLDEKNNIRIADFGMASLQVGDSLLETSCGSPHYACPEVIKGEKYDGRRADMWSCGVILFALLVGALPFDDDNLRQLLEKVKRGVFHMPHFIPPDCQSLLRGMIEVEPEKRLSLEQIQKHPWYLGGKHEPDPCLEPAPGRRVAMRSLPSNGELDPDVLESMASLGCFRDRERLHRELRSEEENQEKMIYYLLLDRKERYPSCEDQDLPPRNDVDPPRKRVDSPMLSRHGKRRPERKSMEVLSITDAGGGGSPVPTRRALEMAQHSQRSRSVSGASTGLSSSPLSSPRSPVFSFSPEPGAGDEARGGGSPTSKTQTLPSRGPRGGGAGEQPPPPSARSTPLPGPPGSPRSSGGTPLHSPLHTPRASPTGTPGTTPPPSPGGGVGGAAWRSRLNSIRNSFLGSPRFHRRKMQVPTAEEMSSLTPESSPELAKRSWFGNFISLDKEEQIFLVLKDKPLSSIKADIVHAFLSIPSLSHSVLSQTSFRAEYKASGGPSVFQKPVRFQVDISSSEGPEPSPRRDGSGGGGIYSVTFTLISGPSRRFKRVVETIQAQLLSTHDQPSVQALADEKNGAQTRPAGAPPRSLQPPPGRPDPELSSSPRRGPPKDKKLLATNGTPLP
# run.parameters: at 10 µM
Listed next: entries and their corresponding residual activity.
Form entry: value (%) — number only.

Below: 4 molecules and their reported residual activity.
O=C1NC(=O)/C(=C\c2ccc3nccnc3c2)S1 : 65
CCN(CC)CCCCN1c2ccccc2Oc2ccc(Cl)cc21 : 105
CC[n+]1c(/C=C/N(C)c2ccccc2)n(-c2ccccc2)c2ccc(-c3nc4ccccc4s3)cc21 : 68
Cc1cc(Nc2nc(-c3ccccc3)nc3ccccc23)n[nH]1 : 12

Please look at the following molecule next.
Exam item: Look at this molecule and give its reported residual activity. Cc1ccc(NC2=CC(=O)c3sc(C)nc3C2=O)cc1
Marked response: 105
